experiment: in vitro
setup-conditions: SD, HW or BN, rat, plasma
Assignment: determine reported fraction unbound at 5 h for the given molecules.

Below, each entry is followed by its recorded fraction unbound at 5 h result.
- molecule: "O=C(NCc1ccc(OC(F)(F)F)cc1)C1c2ccccc2C(=O)N1C[C@@H]1CCCO1 (some centres undefined)"
  fraction unbound at 5 h: 0.0606
- molecule: "O=S(=O)(N[C@H](CO)C(C(F)(F)F)C(F)(F)F)c1ccc(Cl)s1"
  fraction unbound at 5 h: 0.11
- molecule: "CCN(Cc1cc(C(F)(F)F)ccc1-c1cc(CC(=O)O)ccc1OC)C(=O)NCc1ccccc1"
  fraction unbound at 5 h: 0.0191

The following molecules each have a reported value; give each one's fraction unbound at 5 h.
1. CCC[C@@H](CNC(=O)c1nc(Cl)c(N)nc1N)[N+](C)(C)CCCc1ccc(OC)cc1
2. CCCCN(CCNCCc1ccc(O)c2[nH]c(=O)sc12)C(=O)CCOCCc1ccccc1
3. O=c1nc(N2CCOCC2)cc(N(CCO)Cc2cccc3ccccc23)[nH]1
4. CCOC(=O)Nc1ccc(NCc2ccc(F)cc2)cc1N
5. NC(=O)c1cncc(-c2ccc([C@H]3CC[C@H](CC(=O)O)CC3)cc2)n1
6. O=c1cc(N2CCOCC2)nc(NCc2ccccc2)[nH]1
7. Cc1nc(-c2ccc(OCC(C)C)c(C#N)c2)sc1C(=O)O

Found:
1: 0.454; 2: 0.0705; 3: 0.151; 4: 0.201; 5: 0.0063; 6: 0.19; 7: 0.0052

The following molecules each have a reported value; give each one's fraction unbound at 5 h.
1. CCNC(=O)Nc1nc2cc(-c3cccnc3)cc(-c3ncccc3F)c2[nH]1
2. CCC[C@H](c1ccc(C(=O)O)c(Oc2cccc(Cl)c2)c1)N1CCC[C@H](n2cc(C)c(=O)[nH]c2=O)C1
3. O=C(Cc1ccc(F)c(C(F)(F)F)c1)Nc1cccc2c(=O)n([C@@H]3CNC[C@H]3O)ccc12
4. COc1ccccc1CCNCc1cccc(CCNC[C@H](O)c2ccc(O)c3[nH]c(=O)sc23)c1
5. COCCNCc1cccc(CCNC[C@H](O)c2ccc(O)c3[nH]c(=O)sc23)c1

Found:
1: 0.028; 2: 0.016; 3: 0.0948; 4: 0.0836; 5: 0.197

The following molecules each have a reported value; give each one's fraction unbound at 5 h.
1. O=C(O)c1ccc(-c2ccc(Cl)c(C(=O)NCC34CC5CC(CC(C5)C3)C4)c2)cc1
2. CC(C)Oc1cc(Nc2nc3c(cc2F)ncn3[C@@H](CO)c2ccc(F)cn2)n[nH]1
3. c1ccc2c(c1)CCC[C@H]2Nc1nc2ccccc2[nH]1
4. CCN(C(=O)c1cnn(-c2ccccc2)c1NS(=O)(=O)c1ccc(-c2cnco2)cc1)C1CCCCC1

Found:
1. 0.0074
2. 0.119
3. 0.0437
4. 0.0057

Sourced from ChEMBL document CHEMBL3301361
